Exercise: for every item that follows, state its recorded growth.
Tested on: T-47D breast
PROTOCOL DETAILS: NCI-60 one-dose screen, 48 h (100 = growth as untreated, 0 = no growth, -100 = all killed)
STATED CONDITIONS: 10 µM
Compounds without any hit were thinned out: in the full panel of roughly 83,000, 20% have a hit. Activity calls are given as the source filed them. Rule for the calls: active = growth percent below 10; inactive = the rest.

Example entries and their recorded answers appear below.
CN(C)CCNC(=O)OCCCCOc1cc(O)c2c(=O)cc(-c3ccccc3)oc2c1 :: -65.8% (active)
COc1ccc(/C=C/C(=O)c2ccc(N3CCN(C)CC3)cc2)c(C(F)(F)F)c1 :: 39.7% (inactive)
CSc1nc(-c2cccc(C)c2)c2cc(-c3ccccc3)n(C)c2n1 :: 1.02% (active)

Each molecule below has a reported value. Please supply its growth.
1. COc1ccccc1NCc1ccc(CO)n1-c1ccc(C)cc1
2. Cc1ccc2nc(COc3ccc(C(=O)NNC(=S)NCCc4ccccc4)cc3)[nH]c2c1
3. COc1ccc(-c2ccc(/C=N/NC(=O)c3[nH]c4ccc(Br)cc4c3-c3ccccc3)s2)cc1
4. O=C1Nc2cc(-c3ccc(NC(=O)c4cccc([N+](=O)[O-])c4)cc3)ccc2/C1=C/c1ccc[nH]1

["77.4% (inactive)", "74% (inactive)", "72% (inactive)", "27.5% (inactive)"]

Each molecule below has a reported value. Please supply its growth.
1. Cc1cccc(NC(=O)CSc2nc3ccc(F)cc3c(=O)n2-c2ccc(Cl)cc2)c1C
2. O=c1[nH]c2ccc(Cl)cc2cc1CSc1ccc(Nc2nccc(-c3ccc(Cl)cc3)n2)cc1
3. COC[C@@H](CC(C)C)N=C1NC(=O)/C(=C/c2ccc3ncsc3c2)N1

91.5% (inactive)
78.9% (inactive)
-7.77% (active)

----------
System: HOP-92 NSCLC
PROTOCOL DETAILS: NCI-60 one-dose screen, 48 h
STATED CONDITIONS: 10 µM
Experimental: Growth inhibition of the HOP-92 human Non-Small Cell Lung tumor cell line is measured as a screen for anti-cancer activity. Cells are grown in 96 well plates and exposed to the test compound for 48 hours. Compounds are tested at a single concentration, which is 10^-5 M for most compounds. The reported endpoint is percent growth (GI% or GIPRCNT), where numbers from 0 - 100% represent growth inhibition, and numbers from -100% - 0 represent cell death. […]
This is part of a sample that, as a whole, favours compounds with a hit. Of some 83,000 tested, about 20% had one in any assay. Active and inactive are the calls of the source. How the source made its calls: active means growth percent below 10; inactive means the rest.
Respond with a class label; see active, inactive

Here are 5 molecules together with their reported answers.
C/C(=C\CSc1ccccc1C(=O)O)CCCC(C)CCCC(C)CCCC(C)C (centres undefined) :: inactive
O=c1oc2ccc(-c3ccc(F)cc3F)cc2c(=O)n1-c1ccc(F)c(Cl)c1 :: active
COc1cccc(-c2nn(-c3ccccc3)cc2-c2ccnc(NCCCNC(=O)Nc3ccc(F)cc3)c2)c1 :: active
Cc1ccc(-c2nc(Nc3ccc(S(N)(=O)=O)cc3)c3ccccc3n2)cc1 :: inactive
CCCSc1nc(NC2CC2)c(C#N)c(-c2ccc(OC)cc2)n1 :: inactive

// param item: COc1ccc(-c2cc(-c3cc(C(=O)c4ccccc4)n4ccc(C)cc34)nc(N)c2C#N)cc1 ; yields the recorded call
active

// param item: CCCCCCCCCCCCCCCCCCCC(=O)NCCc1c[nH]c2ccc(O)cc12 ; yields the recorded call
inactive

// param item: COC1=C[C@@]23CCC(=O)N2CCc2cc4c(cc2[C@H]3[C@H]1OC(=O)C(C)(C)O)OCO4 ; yields the recorded call
inactive
